Target: T1, SH2 domain of Crkl protein (residues 1-111), H33A variant (UniProt P46109 1-111, H33A)
T1 construct: Crkl adaptor protein, SH2 domain, residues 1-111, His33 replaced by alanine; Site-directed mutant of m1 (QuikChange); source: E. coli BL21 (DE3), purified (HisTrap nickel column, desalting); not shown: His tag, N-terminal, kept
T1 sequence (P46109 1-111 H33A): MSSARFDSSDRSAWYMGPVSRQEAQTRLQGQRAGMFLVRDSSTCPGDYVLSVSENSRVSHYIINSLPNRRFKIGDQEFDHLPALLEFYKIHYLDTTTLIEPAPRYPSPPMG
Assay: stopped-flow fluorescence kinetics (FRET); dansyl-Pax112-123 constant at 2 μM mixed with Crkl-SH2 2 to 10 μM (pseudo-first-order, kon); koff by displacement of the preincubated 2 µM complex with excess non-dansylated Pax112-123 (30 μM); 283 K; 50 mM BisTRIS pH 6.0, 0.5 M NaCl
Conditions: both partners purified
Square brackets hold non-standard residues; d marks the D form. Ends that are not written are not given here. * marks the point of attachment. pY = N[C@@H](Cc1ccc(OP(=O)(O)O)cc1)C(=O)O; Dansyl = CN(C)c1cccc2c(S(=O)(=O)*)cccc12
observable: pKd
Recall that pKd is obtained by taking minus log10 of the concentration measured in molar.

Prompt: I'd like to know its pKd. The binder in question is Dansyl-GEEEHV[pY]SFPNK (The dansyl group is the FRET acceptor of Trp14 of the SH2 domain; source: synthetic peptide, bought: GenScript) [dansylated Pax_(112–123) peptide (Dans-GEEEHV-pY-SFPNK)]
Completion: 5.48
